Target: Nuclear receptor ROR-gamma (Mus musculus) (UniProt P51450)
Sequence (P51450 whole entry, looked up): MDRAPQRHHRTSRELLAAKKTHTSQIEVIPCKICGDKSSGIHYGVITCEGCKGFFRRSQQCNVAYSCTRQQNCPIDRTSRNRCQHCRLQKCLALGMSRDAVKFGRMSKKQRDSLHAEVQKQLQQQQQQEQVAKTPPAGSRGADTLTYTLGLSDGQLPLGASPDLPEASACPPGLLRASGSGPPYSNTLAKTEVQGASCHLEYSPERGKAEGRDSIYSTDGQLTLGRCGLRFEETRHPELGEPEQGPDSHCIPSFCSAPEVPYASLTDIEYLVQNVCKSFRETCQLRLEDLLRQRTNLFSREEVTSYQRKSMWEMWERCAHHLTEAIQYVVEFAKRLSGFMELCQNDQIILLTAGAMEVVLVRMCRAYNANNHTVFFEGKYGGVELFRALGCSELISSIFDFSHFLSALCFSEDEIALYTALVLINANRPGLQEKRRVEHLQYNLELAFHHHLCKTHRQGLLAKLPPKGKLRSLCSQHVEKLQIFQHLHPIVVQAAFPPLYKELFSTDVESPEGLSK
Assay: qHTS for inhibitors of ROR gamma transcriptional activity; also: nearly all actives have a fitted effect of over 60% in size
Conditions: Drosophila S2 Gal4-RORgamma UAS-luciferase reporter, 20 h; series mostly up to 53.6 µM
Among all 310,000 compounds or so, about 17,000 (5.5%) were called active. About 11% were inconclusive and are not listed. Calls follow the shape of the dose curve; as a rule, active = well fitted inhibition curve with a large enough effect; inconclusive = small, poorly fitted or top-dose-only effect, or effect the other way; inactive = no such curve, though single readings can be large or run the other way. The full list was thinned out, with actives kept by preference.
Write down the outcome that applies. Available outcomes: active, inactive

Data request: Test call for this molecule, please: CN(C(=O)C1CCN(c2ncnc3c2nc2n3CCCCC2)CC1)C1CCCCC1
Data returned: inactive

Data request: Thanks! And O=C(NCCN1CCOCC1)c1ccc2c(c1)ncn2C1CCCC1 ?
Data returned: inactive

Data request: Thanks! And CC(=O)c1nc2ccccc2n1Cc1ccccc1 ?
Data returned: inactive

Data request: Thanks! And COc1cccc(OC)c1C(=O)Nc1c(C(=O)N2CCN(c3ccccn3)CC2)oc2ccccc12 ?
Data returned: inactive

Data request: Thanks! And CCN(CC)CCCNC(=O)COc1ccc2oc3c(c2c1)CCCC3 ?
Data returned: inactive

Data request: Thanks! And CCOC(=O)c1cnc(-c2ccccc2)nc1Oc1ccc(C)cc1 ?
Data returned: inactive

Data request: Thanks! And Cc1ccc(N2CCN(c3ccc([N+](=O)[O-])cn3)CC2)c(C)c1 ?
Data returned: inactive

Data request: Thanks! And Cc1nc(COc2cc3oc(=O)cc(C)c3cc2Cl)cs1 ?
Data returned: inactive

Data request: Thanks! And Clc1ccccc1-c1cc(NCCN2CCOCC2)ncn1 ?
Data returned: inactive

Data request: Thanks! And Cc1ccc(C)c(C(=O)N2CCC(n3nccc3NC(=O)C3CC3)CC2)c1 ?
Data returned: inactive

Data request: Thanks! And CCOC(=O)C1=C(c2ccccc2)NC(=O)NC1c1cc(OC)c(OC)cc1OC (centres undefined) ?
Data returned: inactive

Data request: Thanks! And Cc1cc2oc(=O)cc(CN(C)Cc3ccc(OC(F)F)cc3)c2cc1Cl ?
Data returned: inactive

Data request: Thanks! And CCCN(CC1COc2ccccc2O1)C(=S)Nc1ccc(C)cc1 (centres undefined) ?
Data returned: active

Data request: Thanks! And CCOC(=O)c1cnc(-n2nc(C)cc2C)nc1NNc1cc(C)nc(-c2ccccc2)n1 ?
Data returned: active

Data request: Thanks! And C=CCn1c(=O)c(C(=O)Nc2ncccc2O)c(O)c2ccccc21 ?
Data returned: inactive

Data request: Thanks! And Cc1ccc(Cn2c(NC(=O)c3ccco3)nc3ccccc32)cc1 ?
Data returned: active

Data request: Thanks! And CCc1ccc(-c2nn(-c3ccccc3)cc2CSC(=N)N)cc1 ?
Data returned: active

Data request: Thanks! And Cc1cc(NC(=O)CCC2COc3ccccc3O2)no1 (centres undefined) ?
Data returned: inactive

Data request: Thanks! And CN(c1ccc(OCC(=O)O)cc1)S(=O)(=O)c1ccc2ccccc2c1 ?
Data returned: inactive

Data request: Thanks! And O=C1NC(c2ccccc2)Oc2ccccc21 (centres undefined) ?
Data returned: inactive

Data request: Thanks! And CCC(=O)Nc1nc2ccccc2n1Cc1ccccc1C ?
Data returned: active

Data request: Thanks! And Cc1ccnc(NC(=O)c2ccco2)n1 ?
Data returned: inactive

Data request: Thanks! And Cc1ccc(C)c(NC(=O)c2ccc3nccnc3c2)c1 ?
Data returned: inactive

Data request: Thanks! And c1ccc2cc3c(NCCN4CCOCC4)ccnc3cc2c1 ?
Data returned: active

Source of measurements: PubChem BioAssay AID2551
